system: HCT-15
Rule for this label: yes (1) means GI50 is less than 20 µM; no (0) means GI50 is at least 20 µM.

>>> df
                                   compound  assigned_class
0  Clc1ccccc1-c1nnc2c(-c3ccccc3)nc3ccccc3n12          no (0)
1  [N-]=[N+]=NC1=C(N=[N+]=[N-])c2cccc3cccc(c23)C1=O          no (0)
2                          Cc1nnc2ccccc2c1O          no (0)
3     Clc1ccc(Cc2nc3cc4ccccc4cc3[nH]2)cc1Cl         yes (1)
4  c1cc2c(cc1[C@@H]1OC[C@@H]3[C@H]1CO[C@H]3c1ccc3c(c1)OCO3)OCO2          no (0)
5            NC(=O)C12CC3CC(CC(Br)(C3)C1)C2          no (0)

Continue with the compound presented below.
Hello, I'm reviewing records and need to know if GI50 of CC(=O)O[C@H]1C[C@]2(O)[C@@H]3CC[C@@H]4C[C@@H](O)CC[C@]4(C)[C@H]3CC[C@]2(C)[C@H]1C1=CC(=O)OC1 is below 20 µM. Could you check?
yes (1)
